Assay: SU-DIPG-XXV glioma cell viability, MIPE5.0 library, qHTS (AID 1347068);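 as to IC50: cells exposed to compound for 48 hours before viability readout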
Inconclusive results are not listed. Active and inactive are the calls of the source. The limit is not given here; nearly all actives have IC50 up to about 30 µM.
Allowed answers: true (1) (active), false (0) (inactive)

stdin: Entry CC(=O)NC(CS)C(=O)O (configuration not stated) : call = ?
stdout: false (0)

stdin: // query: COc1cccc2c1C(=O)c1c(O)c3c(c(O)c1C2=O)C[C@@](O)(C(=O)CO)C[C@@H]3O[C@H]1C[C@H](N)[C@@H](O)[C@H](C)O1
stdout: true (1)

stdin: // query: CO[C@H]1O[C@@H]2O[C@@]3(C)CC[C@H]4[C@H](C)CC[C@@H]([C@H]1C)[C@@]24OO3
stdout: false (0)

stdin: // query: CC1CNc2c(cccc2S(=O)(=O)N[C@@H](CCCN=C(N)N)C(=O)N2CC[C@@H](C)C[C@@H]2C(=O)O)C1 (some centres not stated)
stdout: false (0)

stdin: // query: Oc1cc(-c2nc(-c3ccccc3)[nH]c2-c2ccncc2)ccc1Cl
stdout: true (1)

stdin: // query: CC(C)C(C)/C=C/C(C)C1CCC2C3=CC=C4CC(O)CCC4(C)C3CCC21C (configuration not stated)
stdout: false (0)

stdin: // query: Nc1ccn([C@@H]2CS[C@H](CO)O2)c(=O)n1
stdout: false (0)

###

Target: L-lactate dehydrogenase (Plasmodium falciparum (isolate CDC / Honduras))
Test: PfLDH activity inhibition – cell lysate, 3D7 strain, counter-screen for P. falciparum growth inhibition project (AID 2304);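 also: 0% = vehicle and 100% = reference inhibitor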
Settings: P. falciparum 3D7 crude extract, LDH APAD/NBT absorbance; at 2 µM; stronger effect = higher value
property: inhibition (%)
Form entry: value (%) — number only.

Some solved entries appear below for comparison.
CC(NC(=O)c1ccc(O)c(-c2ccc(Cl)c(Cl)c2)c1)C(=O)NCCN1CCCCC1 (stereo not given); 2
CC(C)(CN)c1nc(-c2ccc(Br)c(O)c2)c(-c2ccncc2)[nH]1; 0
C=CCOc1cc(Cc2cnc(N)nc2N)cc(OC)c1OC; 2
N#CCc1ccc(Nc2nccc(Nc3ccc(Oc4ccccc4)cc3)n2)cc1; 6

stdin: Please provide the recorded inhibition for CN(C)C(=O)CN1CCN(c2ncnc(N3CCc4c([nH]c5ccccc45)[C@@H]3c3ccc4c(c3)CCO4)n2)CC1 , tested on L-lactate dehydrogenase (Plasmodium falciparum (isolate CDC / Honduras)).
stdout: -1

###

Entries and their fold change
Assay: sensitizers of A549 cells to miR-34 induction, primary screen, imaging, A549 dox-inducible miR-34, nuclei and caspase counts (AID 1347080)
Conditions: A549 miR-34 inducible, Hoechst nuclei count, 48 h; stronger effect = lower value; cell number ratio, induced over uninduced
Activity calls are given as the source filed them.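 The calls were made as follows: active = compounds whose cell count with miR-34 switched on is under 0.7 times the count with it off; inactive = the rest.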

NC(=O)c1ncn(C2O[C@H](CO)[C@@H](O)[C@H]2O)c1N (some centres undefined); 0.937 (inactive)
CC(Oc1ccc(O)cc1)(P(=O)(O)O)P(=O)(O)O; 0.98 (inactive)
C#C[C@]1(O)CCC2C3CCc4cc(OC5CCCC5)ccc4C3CC[C@@]21C (some centres undefined); 0.818 (inactive)
N[C@H](CSC(c1ccccc1)(c1ccccc1)c1ccccc1)C(=O)O; 0.901 (inactive)
C[C@H]1O[C@@H](O[C@H]2[C@@H](O)C[C@H](O[C@H]3[C@@H](O)C[C@H](O[C@H]4CC[C@]5(C)C6C[C@@H](O)[C@]7(C)[C@@H](C8=CC(=O)OC8)CC[C@]7(O)C6CC[C@@H]5C4)O[C@@H]3C)O[C@@H]2C)C[C@H](O)[C@@H]1O (some centres undefined); 0.434 (active)
CC(=O)Nc1ccc(S(=O)(=O)Nc2onc(C)c2C)cc1; 0.897 (inactive)

stdin: Consider the compound FC(F)(F)c1ccc(/C=C/c2nc(COc3ccc(CCCCn4ccnn4)cc3)co2)cc1 and give its measured fold change.
stdout: 1.08 (inactive)

stdin: // query: CC(=O)Oc1c(C)cccc1C(=O)O
stdout: 0.895 (inactive)

stdin: // query: Nc1ncnc2c1ncn2C1O[C@H](COP(=O)(O)O)[C@@H](O)[C@H]1O (some centres undefined)
stdout: 0.861 (inactive)

###

Entries and their viability
Assay: ovarian cancer cell viability with rucaparib, profiling panel, oncology-focused library, rucaparib conditional (AID 1508598)
Settings: patient-derived ovarian cancer cells, CellTiter-Glo viability, 144 h; at 5 µM; OCI-P5x cells; without rucaparib; stronger effect = lower value
Activity calls are given as the source filed them.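 The calls were made as follows: active = normalized viability below 100% at a tested concentration; inactive = the rest.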

Some solved entries appear below for comparison.
C[C@H](NC(=O)Cc1cc(F)cc(F)c1)C(=O)N[C@H](C(=O)OC(C)(C)C)c1ccccc1; 78.3% (active)
CC(NC(=O)c1ccccc1N=Cc1c(O)ccc2ccccc12)c1ccccc1 (stereo unspecified); 108% (inactive)
CN(C)CCCn1cc(C2=C(c3c[nH]c4ccccc34)C(=O)NC2=O)c2ccccc21; 105% (inactive)
O=c1cc(N2CCOCC2)oc2c(-c3ccccc3)cccc12; 93.7% (active)
Cc1ccc(S(=O)(=O)/C=C/C#N)cc1; 2.37% (active)

Proceeding to the next compound to report its viability.
stdin: Consider the compound O=c1cc(-c2cccc3c2Sc2ccccc2S3)oc(N2CCOCC2)c1 and give its measured viability.
stdout: 27.9% (active)

###

Assay: inhibitors of mitochondrial cytochrome c release, biochemical, purified mitochondria (AID 1603);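 also: mouse liver mitochondria challenged with calcium chloride; signal normalized to the plate average as 100%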
Details: stronger effect = lower value
Entries and their cytochrome c release ratio
Answer with a number only.

Some solved entries appear below for comparison.
CCCC1O[C@@H]2CC3C4CCC5=CC(=O)C=CC5(C)C4[C@@H](O)CC3(C)[C@]2(C(=O)CO)O1 (some centres undefined); 1.5
CC(=O)Oc1ccc2c(c1)CCC1C2CC[C@@]2(C)C1CC[C@@H]2OC(C)=O (some centres undefined); 1
O=C(O)CCCCC1SCC2NC(=O)NC21 (centres undefined); 0.89
C=C[C@@]1(C)CC(=O)[C@@]2(O)[C@](C)(O1)[C@@H](OC(C)=O)[C@@H](O)C1C(C)(C)CC[C@H](O)[C@@]12C (some centres undefined); 0.91
CC(=O)O[C@]1(C(C)=O)CCC2C3C[C@H](C)C4=CC(=O)CC[C@]4(C)C3CC[C@@]21C (some centres undefined); 1.2
C=C[C@H]1CN2CC[C@H]1C[C@@H]2[C@H](O)c1ccnc2ccc(OC)cc12; 0.97
CC(=O)OCC(=O)[C@@]1(O)[C@H](OC(C)=O)CC2C3CCC4=CC(=O)C=C[C@]4(C)[C@@]3(F)[C@@H](O)C[C@@]21C (some centres undefined); 1.31
C/C=C/CC(C)C(O)C1C(=O)NC(CC)C(=O)N(C)CC(=O)N(C)C(CC(C)C)C(=O)NC(C(C)C)C(=O)N(C)C(CC(C)C)C(=O)NC(C)C(=O)NC(C)C(=O)N(C)C(CC(C)C)C(=O)N(C)C(CC(C)C)C(=O)N(C)C(C(C)C)C(=O)N1C (centres undefined); 0.93
CCCC(=O)O[C@]1(C(=O)CO)CCC2[C@@H]3CCC4=CC(=O)CC[C@]4(C)C3[C@@H](O)C[C@@]21C (some centres undefined); 1.03
C[C@]12C=CC(=O)C=C1CCC1C2C(=O)C[C@@]2(C)C1CC[C@]2(O)C(=O)CO (some centres undefined); 0.79

stdin: Consider the molecule CC[C@H]1CN2CCc3cc(OC)c(OC)cc3C2C[C@@H]1CC1NCCc2cc(OC)c(OC)cc21 (some centres undefined) and give its measured cytochrome c release ratio.
stdout: 1.03

stdin: // query: O=C(O)C1CCCNC1 (centres undefined)
stdout: 1.08

stdin: // query: CC(=O)[C@H]1CCC2C3CCC4=CC(=O)CC[C@]4(C)C3CC[C@@]21C (some centres undefined)
stdout: 1.24

stdin: // query: CCCC(=O)Nc1ncnc2c1ncn2C1O[C@@H]2COP(=O)(O)O[C@H]2[C@H]1OC(=O)CCC (some centres undefined)
stdout: 0.87

stdin: // query: CCC(=O)OCC(=O)C1(OC(=O)CC)C(C)CC2C3CCC4=CC(=O)C=CC4(C)C3(Cl)C(O)CC21C (centres undefined)
stdout: 1.11

stdin: // query: CN(C)CCCO[C@H]1[C@@H](C(O)CO)OC2OC(C)(C)O[C@@H]21 (some centres undefined)
stdout: 1.02

###

Assay: LFS_MB_P medulloblastoma growth inhibition, cell-based, chromothripsis tumors, cisplatin or BGB combos (AID 1671449);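 also: cells exposed for 96 hours; 0% = vehicle DMSO and 100% = killing by high DMSO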
Conditions: LFS_MB_P medulloblastoma cells, measured here: combination with BGB IC40, at 0.005 µM
property: inhibition

O=C(Nc1ccccc1)c1ccccc1O; 36%

stdin: Consider the compound Cc1c(-c2cnccn2)ssc1=S and give its measured inhibition.
stdout: -19%

stdin: // query: CCc1c2c(nc3ccc(O)cc13)-c1cc3c(c(=O)n1C2)COC(=O)[C@]3(O)CC
stdout: -27.9%

stdin: // query: CO[C@H]1/C=C/O[C@@]2(C)Oc3c(C)c(O)c4c(O)c(c(C=NN5CCN(C)CC5)c(O)c4c3C2=O)NC(=O)/C(C)=C\C=C\[C@H](C)[C@H](O)[C@@H](C)[C@@H](O)[C@@H](C)[C@H](OC(C)=O)[C@@H]1C
stdout: -11.3%
